Experiment: compound effects on differentiated 3T3-L1 adipocyte viability – cell-based, 3T3-L1 adipocytes, calcein-AM fluorescence, 48 h, basal, profiling panel (AID 1163); further: test concentration not given here
Conditions: 3T3-L1 adipocytes viability, higher = more signal

record-smiles	z-score
Cc1ccc(-c2cccc(=O)o2)cc1	0.796
COc1ccc(C#Cc2ccc3c(c2)[C@]2(C(=O)N3)[C@H](C(=O)O)[C@H]3C(=O)O[C@H](c4ccccc4)[C@H](c4ccccc4)N3[C@@H]2c2ccc(OCCO)cc2)cc1	0.971
COC(=O)C(CC#Cc1ccc2c(c1)[C@]1(C(=O)N2)[C@H](c2ccccc2OCCO)N2[C@H](c3ccccc3)[C@H](c3ccccc3)OC(=O)[C@H]2[C@@H]1C(=O)Nc1nc2ccccc2s1)C(=O)OC	1.15
C/C=C/[C@@H](CCn1cc([C@H](O)c2ccccc2)nn1)[Si](C)(C)c1ccc(OC)cc1	0.485
COCCOC(=O)N1C(=O)[C@@]2(c3cc(C#CCC(C(=O)OC)C(=O)OC)ccc31)[C@H](c1ccc(OCCO)cc1)N1[C@H](c3ccccc3)[C@H](c3ccccc3)OC(=O)[C@H]1[C@@H]2C(N)=O	0.433
COC(=O)C(CC#Cc1ccc2c(c1)[C@]1(C(=O)N2)[C@H](c2ccc(O)cc2)N2[C@H](c3ccccc3)[C@H](c3ccccc3)OC(=O)[C@H]2[C@@H]1C(=O)O)C(=O)OC	-0.987

---

Assay: small molecules captured by biotinylated probe aFSTL3 – biochemical, small-molecule microarray, fluorescence 635/667, stem cell growth factor project, primary screen (AID 1064);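 further: measures binding of the biotinylated anti-FSTL3 antibody to printed compounds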
Conditions: higher = more signal

record-smiles	composite z-score
CCOC(=O)C1=CC[C@@H](c2ccccc2)N(S(=O)(=O)c2ccc(C)cc2)[C@H]1C=C(C)C	-0.259
C[C@@]1([C@@H](NC(=O)c2cccs2)c2ccc(-c3ccccc3)cc2)C[C@H]1C1CCCCC1	-0.11
COCCOC(=O)N1C(=O)[C@@]2(c3cc(C#CC4(O)CCCCCC4)ccc31)[C@H](C(=O)NC[C@H](O)c1ccccc1)[C@H]1C(=O)O[C@H](c3ccccc3)[C@H](c3ccccc3)N1[C@@H]2c1ccc(OCCO)cc1	-0.38
CC(=O)NCCCC[C@@H]1NC(=O)[C@H]2C[C@@H](C(=O)NCCCCCN)[C@@H](c3cccc(OCCO)c3)N2C1=O	-0.0485
C[C@H]1ON(c2ccccc2)[C@@H](c2ccccc2)[C@@H]1C(=O)N1C(=O)OC[C@@H]1c1ccccc1	-0.331
C=CCOC(=O)[C@@H]1[C@H]2C(=O)O[C@H](c3ccccc3)[C@H](c3ccccc3)N2[C@H](c2ccc(OCCOC(=O)[C@H]3C[C@H]4C(=O)N[C@@H](Cc5ccccc5)C(=O)N4[C@H]3c3cccc(OCCO)c3)cc2)[C@@]12C(=O)Nc1ccc(I)cc12	0.014

---

Tested on: glycogen synthase kinase-3 (GSK3A per assay name; protocol says GSK3B)
Experiment: compounds binding glycogen synthase kinase-3 – biochemical, small-molecule microarray, 635 nm fluorescence, GSK3A, primary screen (AID 1103); further: the record names both GSK3A and GSK3B
Settings: fluorescence 635 nm, higher = more signal
recorded-metric: composite z-score

molecule	recorded-metric	reported-measurement
CC(C)c1ccc(NN2C(C(O)c3ccccn3)C=CC3C(=O)N(c4ccccc4)C(=O)C32)cc1 (centres undefined)	composite z-score	1.31
COC(=O)[C@@]1(Cc2ccc(F)cc2)[C@H]2c3cc(C(=O)N(C)C)n(CCSCCO)c3C[C@H]2CN1C(=O)c1ccccc1	composite z-score	0.266
[N-]=[N+]=NCc1ccccc1C[C@]1(C(=O)NCCN2CCOCC2)N=C(c2ccc(OCCCO)cc2)O[C@H]1c1ccccc1	composite z-score	1.28
CCCC=C(CCC)[C@@H](NS(=O)(=O)c1ccccc1)c1ccc(C(F)(F)F)cc1	composite z-score	1.32

---

Experiment: Pseudomonas biofilm growth suppression – PAO1 strain, BacTiter-Glo luminescence, LB-PBS, primary screen (AID 1144)
Conditions: P. aeruginosa PAO1 biofilm, 12 h, higher = more signal
Please mark criterion met if the recorded z-score is equal to or greater than -0.4, and criterion not met if it falls below.

molecule	category-label
COC(=O)[C@@]1(Cc2ccc(F)cc2)[C@H]2c3cc(C(=O)N(C)C)n(CCSCCO)c3C[C@H]2CN1C(=O)c1ccccc1	criterion not met
O=C1NC(=O)C2C1C=CC(C(O)c1ccc3c(c1)OCO3)N2Nc1ccc(Cl)cc1Cl (centres undefined)	criterion met
CN(C)CCCN1C(=O)[C@@]2(Cc3ccccc31)c1ccccc1C(=O)N(Cc1ccccc1)[C@H]2c1ccc(CO)cc1	criterion not met
CC1=C2[C@@H](CCc3ccccc3)OB(O)C[C@@H]2[C@@H]2C(=O)C=CC(=O)[C@@H]2C1	criterion met
COCCCNC(=O)[C@]1(Cc2ccccc2)N=C(c2ccc(OCCCO)cc2)O[C@@H]1c1ccccc1N=[N+]=[N-]	criterion not met
C[C@@H]1ON(c2ccccc2)[C@H](c2ccccc2)[C@H]1C(=O)N1C(=O)OC[C@H]1Cc1ccccc1	criterion not met
C=C(C(=O)CC[C@H](OC(=O)c1cccnc1)c1ccc(OCCO)cc1)C(C)C	criterion met
COCCOC(=O)N1C(=O)[C@@]2(c3cc(C#Cc4ccc(OC)cc4)ccc31)[C@H](C(=O)N1CCc3cc(OC)c(OC)cc3C1)[C@H]1C(=O)O[C@H](c3ccccc3)[C@H](c3ccccc3)N1[C@@H]2c1ccc(OCCO)cc1	criterion not met
C=C(CCCC)/C(=C/C[C@@H](OC(=O)c1ccncc1)c1ccccc1OCCO)c1cc(C(=O)OC)ccc1OC	criterion met
C=CCNC(=O)[C@H]1[C@@H]2C(=O)O[C@@H](c3ccccc3)[C@@H](c3ccccc3)N2[C@@H](c2ccc(O)cc2)[C@]12C(=O)N(C(=O)OCCOC)c1ccc(C#CC3(O)CCCCCC3)cc12	criterion not met
CC(C)C(CO)N1C(=O)[C@@H]2[C@H]3C(=O)OCC=C[C@H]3OC23C=CCN(Cn2nnc4ccccc42)C(=O)[C@@H]13 (some centres undefined)	criterion met
COc1ccc(CCNC(=O)[C@@H]2c3ccccc3C(=O)N(Cc3ccccc3)[C@H]2c2ccc(CO)cc2)cc1	criterion not met
CCCCC=C[C@@H](NC(=O)CCc1ccccc1)c1ccccc1	criterion met
CCCC=C(CCC)[C@@H](NC(=O)Cc1ccccc1)c1ccc(C(=O)OC)cc1	criterion met
Cc1ccccc1C(O)C1C=CC2C(=O)N(C)C(=O)C2N1Nc1ccc([N+](=O)[O-])cc1[N+](=O)[O-] (centres undefined)	criterion met
COCC(=C=CC[C@@H](O)c1ccccc1OCCO)C[C@@H](O)c1ccccn1	criterion met
CCCC[C@H]1OB(O)C[C@H]2C1=C(COc1ccccc1)Cn1c(=O)n(-c3ccccc3)c(=O)n12	criterion met
O=C1O[C@H](c2ccccc2)[C@H](c2ccccc2)N2[C@H]1[C@@H](C(=O)N1CCN(c3ncccn3)CC1)[C@]1(C(=O)Nc3ccc(C#CCCO)cc31)[C@H]2c1ccccc1OCCO	criterion met
COC(=O)C(CC#Cc1ccc2c(c1)[C@]1(C(=O)N2)[C@H](c2ccc(O)cc2)N2[C@H](c3ccccc3)[C@H](c3ccccc3)OC(=O)[C@H]2[C@@H]1C(=O)O)C(=O)OC	criterion met
COc1ccc([Si](C)(C)[C@H]2[C@H](CCn3cc(CCO)nn3)O[C@@]3(C(=O)N(Cc4cccc(N5C(=O)c6cccc7cccc5c67)c4)c4ccccc43)[C@@H]2C)cc1	criterion not met
COCC(=C=CC[C@@H](O)c1ccccc1OCCO)C[C@@H](O)COCc1ccccc1	criterion met
Cc1ccc(S[C@]2(C(=O)O)CC(=O)N(Cc3ccccc3C(F)(F)F)[C@@H]2c2ccc(CO)cc2)cc1	criterion met
O=C1NC(=O)C2C1C=CC(C(O)CCc1ccccc1)N2Nc1ccccn1 (centres undefined)	criterion not met
CC(C)CN1C(=O)[C@@]2(Cc3ccccc31)c1ccccc1C(=O)N(Cc1ccccc1)[C@H]2c1ccc(CO)cc1	criterion met
CCOC(=O)C1=CC[C@@H](c2cccc(Br)c2)N(S(=O)(=O)c2ccc(C)cc2)[C@H]1c1ccc([N+](=O)[O-])cc1	criterion met
COC(=O)[C@]1(Cc2ccccc2N=[N+]=[N-])N=C(c2ccc(OCCCO)cc2)O[C@@H]1c1ccccc1	criterion not met
C=CCNC(=O)[C@@H]1[C@H]2C(=O)O[C@H](c3ccccc3)[C@H](c3ccccc3)N2[C@H](c2ccc(O)cc2)[C@@]12C(=O)Nc1ccc(C#CCCO)cc12	criterion not met
CCOC(=O)C[C@H]1[C@H](OC(=O)c2ccc(C(=O)c3ccccc3)cc2)[C@@H](NC(=O)C2CCCCC2)c2cc(OCCCO)ccc2N1C(=O)Cc1ccc(OC)cc1	criterion met

---

Measured z-score of individual entries
Test: growth effects on S. cerevisiae YJM789 – YJM789 clinical isolate, OD600, 24 h, basal, primary screen (AID 1089);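 further: growth of clinical yeast isolate S. cerevisiae YJM 789 seeded 1000 cells per well; test concentration not given here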
Conditions: higher = more signal, called active from +8 up or from −8 down
recorded-metric: z-score

compound	recorded-metric	reported-measurement
COC(=O)[C@@]1(Cc2ccc(OC)cc2)[C@H]2c3cc(C(=O)N4CCCC4)n(CCc4ccc(O)c(OC)c4)c3C[C@H]2CN1C(=O)c1ccccc1	z-score	0.525
C=C(C)[C@@H]1CC=C(C(O)C2C=CC3C(=O)N(C4CCCCC4)C(=O)C3N2Nc2ccc(OC)cc2)CC1 (some centres not stated)	z-score	0.188
COc1ccccc1CN1C(=O)c2ccccc2[C@@H](C(=O)NCC(C)C)[C@@H]1c1ccc(CO)cc1	z-score	0.444
CN1C(=O)C2C=CC(C(O)c3cccc4ccccc34)N(NC(=O)OC(C)(C)C)C2C1=O (configuration not stated)	z-score	-1.04
CCCC=C(CCC)[C@@H](NS(=O)(=O)c1cccc2cccnc12)c1ccc(C(=O)OC)cc1	z-score	0.797
Cc1ccccc1C(O)C1C=CC2C(=O)N(C)C(=O)C2N1Nc1ccc([N+](=O)[O-])cc1[N+](=O)[O-] (configuration not stated)	z-score	0.426
CC(C)N1C(=O)c2ccccc2[C@](C)(C(=O)O)[C@@H]1c1ccc(CO)cc1	z-score	-0.0219
CN(C)C(=O)[C@@]1(CCC(=O)OC(C)(C)C)N=C(c2ccc(OCCCO)cc2)O[C@H]1c1ccccc1N=[N+]=[N-]	z-score	0.82
COCCOC(=O)N1C(=O)[C@@]2(c3cc(C#Cc4ccc(OC)cc4)ccc31)[C@H](C(=O)N1CCc3cc(OC)c(OC)cc3C1)[C@H]1C(=O)O[C@H](c3ccccc3)[C@H](c3ccccc3)N1[C@@H]2c1ccc(OCCO)cc1	z-score	2.2
CCCN1C(=O)[C@@]2(Cc3ccccc3)N=C(c3ccc(OCCCO)cc3)O[C@H]2c2ccccc21	z-score	-1.46
COCCOC(=O)N1C(=O)[C@@]2(c3ccccc31)[C@H](c1ccccc1OCCO)N1[C@H](c3ccccc3)[C@H](c3ccccc3)OC(=O)[C@H]1[C@@H]2C(=O)N1CCc2cc(OC)c(OC)cc2C1	z-score	2.11
CN1C(=O)C2C=CC(C(O)COCc3ccccc3)N(Nc3ccccc3)C2C1=O (configuration not stated)	z-score	0.12
C=CCC(OC(C)=O)[C@@H]1[C@@H](N(Cc2cccc3ccccc23)C(=O)c2ccc(C)cc2)c2cc(OCCCO)ccc2N1C(=O)c1ccc2ccccc2c1 (some centres not stated)	z-score	-0.844
COC(=O)[C@@]1(Cc2ccccc2)[C@H]2c3cc(C(=O)N4CCCC4)n(Cc4ccccc4)c3C[C@H]2CN1C(=O)c1ccccc1	z-score	-0.0324
C[C@]12C(=O)N(CCCO)[C@@H]3C(=O)N(c4ccc(Cl)cc4)CC=CC31O[C@@H]1/C=C\CCCOC(=O)C12 (some centres not stated)	z-score	-1.65
O=C1N(CCS(=O)(=O)c2ccccc2)Cc2ccccc2C[C@@]12COC(c1ccc(OCCCO)cc1)=N2	z-score	0.978
O=C1NC(=O)C2C1C=CC(C(O)c1ccc3c(c1)OCO3)N2Nc1ccc(Cl)cc1Cl (configuration not stated)	z-score	-3.53
